The reported measurements were obtained from the RNAGym collection of RNA variant scans (doi:10.1126/science.aae0568).

B1: tRNA (parent)
chain: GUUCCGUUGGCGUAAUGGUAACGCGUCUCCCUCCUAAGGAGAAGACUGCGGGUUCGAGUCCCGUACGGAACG

Variants of: B1
test: yeast fitness relative to wild type (ratio to wild type); higher = fitter; tRNA-Arg(CCU), competitive growth, 37 C, YPD
Variants at the floor of the assay were thinned out.
assay.endpoint: yeast fitness
Simply state the number, no unit and no words.

Worked examples follow.
U26G C49U
0.974
G10A G52C
0.528
G44A U64G
0.694
C46G A57U
0.907
A45G C60G
0.821

### Prompt Provide one value: measured yeast fitness of C29A A40U
### Response 0.684

### Prompt Give a short answer stating reported yeast fitness for U35G U53G .
### Response 0.592
